measured_target: MMP-9 (Homo sapiens)
Construct: from tissue; host or cells: human polymorphonuclear leukocytes (PMN) from whole blood (New York Blood Center), PMA-stimulated supernatant
Sequence (P14780 107-707 limits assumed): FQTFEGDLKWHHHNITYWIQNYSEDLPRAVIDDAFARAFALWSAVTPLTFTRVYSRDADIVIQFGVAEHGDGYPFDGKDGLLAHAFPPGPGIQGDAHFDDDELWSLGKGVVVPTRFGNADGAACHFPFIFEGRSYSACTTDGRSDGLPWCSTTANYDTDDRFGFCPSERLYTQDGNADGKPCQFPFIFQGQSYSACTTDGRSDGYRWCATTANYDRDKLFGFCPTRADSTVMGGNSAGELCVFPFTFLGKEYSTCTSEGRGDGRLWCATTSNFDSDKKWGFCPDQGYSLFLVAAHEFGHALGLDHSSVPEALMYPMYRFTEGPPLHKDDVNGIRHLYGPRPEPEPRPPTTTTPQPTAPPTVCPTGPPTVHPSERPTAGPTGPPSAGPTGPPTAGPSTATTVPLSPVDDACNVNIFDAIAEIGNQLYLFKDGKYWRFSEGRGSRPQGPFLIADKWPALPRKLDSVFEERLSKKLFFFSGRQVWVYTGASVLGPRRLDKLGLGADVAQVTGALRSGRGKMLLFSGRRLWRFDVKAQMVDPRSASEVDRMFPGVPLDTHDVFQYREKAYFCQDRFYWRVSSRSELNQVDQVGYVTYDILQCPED
assay_info: Automated MMP Profiling Assay, MMP-9 fluorogenic
Type: biochemical
assay_setup: 96-well automated, P218
measurement_name: IC50

# molecule, measured_target, value
measured = [
    ("O=C(O)c1ccc(CCC(CC(=O)c2ccc(-c3ccc(Cl)cc3)cc2)C(=O)O)cc1 (centres unmarked)", "MMP-9 (Homo sapiens)", "1010 nM"),
    ("CC(C)CCOc1ccc(-c2ccc(C(=O)CC(CCCc3ccccc3)C(=O)O)cc2)cc1 (centres unmarked)", "MMP-9 (Homo sapiens)", "> 1250 nM"),
    ("O=C(Nc1ccc(-c2ccc(C(=O)CC(CCc3ccccc3)C(=O)O)cc2)cc1)OCc1ccccc1 (centres unmarked)", "MMP-9 (Homo sapiens)", "1400 nM"),
    ("O=C(O)c1ccc(COc2ccc(-c3ccc(C(=O)CC(CCCc4ccccc4)C(=O)O)cc3)cc2)cc1 (centres unmarked)", "MMP-9 (Homo sapiens)", "1330 nM"),
    ("O=C(CC(CCCc1ccccc1)C(=O)O)c1ccc(-c2ccc(Br)cc2)cc1 (centres unmarked)", "MMP-9 (Homo sapiens)", "358 nM"),
    ("COC(=O)c1ccccc1S[C@@H]1CC[C@@H](C(=O)c2ccc(-c3ccc(Cl)cc3)cc2)[C@@H]1C(=O)O", "MMP-9 (Homo sapiens)", "> 1250 nM"),
    ("COc1cccc2c1C(=O)N(CCC(CC(=O)c1ccc(-c3ccc(Cl)cc3)cc1)C(=O)O)C2=O (centres unmarked)", "MMP-9 (Homo sapiens)", "6.1 nM"),
    ("O=C(C[C@H](CCN1C(=O)c2ccccc2C1=O)C(=O)O)c1ccc(-c2ccc(Cl)cc2)cc1", "MMP-9 (Homo sapiens)", "1.15 nM"),
    ("O=C(O)c1ccccc1S[C@H]1CC[C@H](C(=O)c2ccc(-c3ccc(Cl)cc3)cc2)[C@H]1C(=O)O (relative stereo)", "MMP-9 (Homo sapiens)", "290 nM"),
    ("O=C(CC(CCc1cccc(I)c1)C(=O)O)c1ccc(-c2ccc(Cl)cc2)cc1 (centres unmarked)", "MMP-9 (Homo sapiens)", "1220 nM"),
    ("O=C(c1ccc(-c2ccc(Cl)cc2)cc1)[C@H]1CCN(C(=O)OCc2ccccc2)[C@@H]1C(=O)O", "MMP-9 (Homo sapiens)", "381 nM"),
    ("CCCCCOc1ccc(-c2ccc(C(=O)[C@H]3CC[C@@H](Cc4ccccc4)[C@@H]3C(=O)O)cc2)cc1", "MMP-9 (Homo sapiens)", "343 nM"),
    ("O=C(CC(CCCCN1C(=O)c2ccccc2C1=O)C(=O)O)c1ccc(-c2ccc(Cl)cc2)cc1 (centres unmarked)", "MMP-9 (Homo sapiens)", "50 nM"),
    ("O=C(CC(CCN1C(=O)c2ccncc2C1=O)C(=O)O)c1ccc(-c2ccc(Cl)cc2)cc1 (centres unmarked)", "MMP-9 (Homo sapiens)", "12 nM"),
    ("O=C(C[C@H](CCCc1ccccc1)C(=O)O)c1ccc(-c2ccc(Cl)cc2)cc1", "MMP-9 (Homo sapiens)", "185 nM"),
    ("CC(C)(C)c1ccc2c(c1)C(=O)N(CCC(CC(=O)c1ccc(-c3ccc(Cl)cc3)cc1)C(=O)O)C2=O (centres unmarked)", "MMP-9 (Homo sapiens)", "15 nM"),
    ("O=C(O)[C@H]1[C@H](CSc2nc3ccccc3s2)CC[C@@H]1C(=O)c1ccc(-c2ccc(Cl)cc2)cc1 (relative stereo)", "MMP-9 (Homo sapiens)", "146 nM"),
    ("O=C(C[C@@H](CCN1C(=O)c2ccccc2C1=O)C(=O)O)c1ccc(-c2ccc(Cl)cc2)cc1", "MMP-9 (Homo sapiens)", "197 nM"),
    ("CCCCC(=O)Nc1ccc(-c2ccc(C(=O)CC(CCc3ccccc3)C(=O)O)cc2)cc1 (centres unmarked)", "MMP-9 (Homo sapiens)", "> 1250 nM"),
    ("O=C(CC(CCN1C(=O)c2ccccc2C1=O)C(=O)O)c1ccc(-c2ccc(Cl)cc2)cc1 (racemic)", "MMP-9 (Homo sapiens)", "3 nM"),
    ("COC(=O)c1cccc(SCC(CC(=O)c2ccc(-c3ccc(Cl)cc3)cc2)C(=O)O)c1 (centres unmarked)", "MMP-9 (Homo sapiens)", "> 1250 nM"),
    ("Cc1ccc(C(=O)OC[C@@H]2CC[C@H](C(=O)c3ccc(-c4ccc(Cl)cc4)cc3)[C@H]2C(=O)O)cc1 (relative stereo)", "MMP-9 (Homo sapiens)", "40 nM"),
    ("CCOc1ccc(-c2ccc(C(=O)CC(CCN3C(=O)c4cc5ccccc5cc4C3=O)C(=O)O)cc2)cc1 (centres unmarked)", "MMP-9 (Homo sapiens)", "1.6 nM"),
    ("COCCOCOC[C@@H]1CC[C@H](C(=O)c2ccc(-c3ccc(Cl)cc3)cc2)[C@H]1C(=O)O (relative stereo)", "MMP-9 (Homo sapiens)", "26 nM"),
    ("COC(=O)c1ccccc1S[C@H]1CC[C@H](C(=O)c2ccc(-c3ccc(Cl)cc3)cc2)[C@H]1C(=O)O", "MMP-9 (Homo sapiens)", "531 nM"),
    ("CCCCCCOc1ccc(-c2ccc(C(=O)CC(CCc3ccccc3)C(=O)O)cc2)cc1 (centres unmarked)", "MMP-9 (Homo sapiens)", "> 1250 nM"),
    ("O=C(O)[C@@H]1[C@@H](CN2C(=O)c3ccccc3C2=O)CC[C@H]1C(=O)c1ccc(-c2ccc(Cl)cc2)cc1", "MMP-9 (Homo sapiens)", "100 nM"),
    ("O=C(C[C@H](CS(=O)(=O)c1ccccc1)C(=O)O)c1ccc(-c2ccc(Cl)cc2)cc1", "MMP-9 (Homo sapiens)", "555 nM"),
    ("COCOC[C@@H]1CC[C@H](C(=O)c2ccc(-c3ccc(Cl)cc3)cc2)[C@H]1C(=O)O (relative stereo)", "MMP-9 (Homo sapiens)", "180 nM"),
]

Values were extracted from patent US5789434A.
